Recorded DC50 for the following compounds
experimental-target: STAT3 (Homo sapiens, UniProt P40763)
Sequence (P40763 whole entry): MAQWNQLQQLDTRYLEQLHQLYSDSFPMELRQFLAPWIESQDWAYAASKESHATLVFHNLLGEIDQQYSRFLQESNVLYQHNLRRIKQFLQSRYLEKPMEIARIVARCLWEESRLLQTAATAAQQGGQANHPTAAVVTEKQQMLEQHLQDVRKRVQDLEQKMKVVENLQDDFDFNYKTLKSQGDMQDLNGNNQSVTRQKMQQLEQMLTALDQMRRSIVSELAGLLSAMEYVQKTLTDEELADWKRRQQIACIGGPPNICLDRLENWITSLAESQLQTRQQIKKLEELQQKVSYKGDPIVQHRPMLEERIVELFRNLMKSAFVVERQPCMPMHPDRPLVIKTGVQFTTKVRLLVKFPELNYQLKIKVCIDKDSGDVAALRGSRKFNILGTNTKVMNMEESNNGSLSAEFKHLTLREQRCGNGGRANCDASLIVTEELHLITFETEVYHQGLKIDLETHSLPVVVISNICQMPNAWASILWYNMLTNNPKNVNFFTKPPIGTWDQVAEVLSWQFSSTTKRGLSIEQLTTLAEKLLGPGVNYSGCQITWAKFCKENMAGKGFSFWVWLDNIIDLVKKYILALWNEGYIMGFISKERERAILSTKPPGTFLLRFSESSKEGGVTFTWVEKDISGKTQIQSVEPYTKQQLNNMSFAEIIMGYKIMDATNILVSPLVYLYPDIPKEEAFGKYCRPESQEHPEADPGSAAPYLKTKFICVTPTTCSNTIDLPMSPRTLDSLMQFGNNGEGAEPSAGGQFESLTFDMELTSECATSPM
experimental-details: Quantitation of STAT3 degradation in A549 cells by Western blot
Format: cell-based
Set-up: expressed in transfected cells; host or cells: A549
test-parameters: read-out: A549 DC50, 24 hours, tested up to 30 μM or 10 μM
readout-name: DC50

compound | experimental-value
Cc1ncsc1-c1ccc(CNC(=O)[C@@H]2C[C@@H](O)CN2C(=O)[C@@H](NC(=O)CCc2ccc3cc(CO[C@H](C)[C@H](CCC(N)=O)NC(=O)[C@@H]4Cc5cccc6c5N4C(=O)[C@@H](NC(=O)c4cc5cc(C(=O)P(=O)(O)O)ccc5[nH]4)CC6)ccc3c2)C(C)(C)C)cc1 | < 30 µM
C/C(=C\C(=O)N[C@H]1CCc2cccc3c2N(C1=O)[C@H](C(=O)N[C@@H](CCC(N)=O)[C@@H](C)OCc1ccc(CCCCCc2cccc4c2n(C)c(=O)n4C2CCC(=O)NC2=O)cc1)C3)c1ccc(C(F)(F)P(=O)(OCOC(=O)C(C)(C)C)OCOC(=O)C(C)(C)C)cc1 (stereo partly shown) | > 30 µM
NC(=O)CC[C@H](NC(=O)[C@@H]1CC[C@@H]2CCN(C(=O)CCCCCC#Cc3cccc4c3CN(C3CCC(=O)NC3=O)C4=O)C[C@H](NC(=O)c3cc4cc(C(=O)P(=O)(O)O)ccc4[nH]3)C(=O)N21)C(=O)NC(c1ccccc1)c1ccccc1 (stereo partly shown) | < 30 µM
C/C(=C\C(=O)N[C@H]1CN(C(=O)CCCCCc2ccc3c(c2)n(C)c(=O)n3C2CCC(=O)NC2=O)CC[C@H]2CC[C@@H](C(=O)N[C@@H](CCC(N)=O)C(=O)NC(c3ccccc3)c3ccccc3)N2C1=O)c1ccc(C(F)(F)P(=O)(O)O)cc1 (stereo partly shown) | > 30 µM
C/C(=C\C(=O)N[C@H]1CCc2cccc3c2N(C1=O)[C@H](C(=O)N[C@@H](CCC(N)=O)[C@@H](C)OCc1ccc(CCCCC(=O)N[C@H](C(=O)N2C[C@H](O)C[C@H]2C(=O)NC2(c4ccc(-c5scnc5C)cc4)CC2)C(C)(C)C)cc1)C3)c1ccc(C(F)(F)P(=O)(O)O)cc1 | > 30 µM
Cc1ncsc1-c1ccc(CNC(=O)[C@@H]2C[C@@H](O)CN2C(=O)[C@@H](NC(=O)CCC#Cc2ccc(CO[C@H](C)[C@H](CCC(N)=O)NC(=O)[C@@H]3Cc4cccc5c4N3C(=O)[C@@H](NC(=O)c3cc4cc(C(=O)P(=O)(O)O)ccc4[nH]3)CC5)cc2)C(C)(C)C)cc1 | > 30 µM
Cn1c(=O)n(C2CCC(=O)NC2=O)c2ccc(CCCCCCCC(=O)N3CC[C@H]4CC[C@@H](C(=O)N[C@@H](CCC(N)=O)C(=O)NC(c5ccccc5)c5ccccc5)N4C(=O)[C@@H](NC(=O)c4cc5cc(C(=O)P(=O)(O)O)ccc5[nH]4)C3)cc21 (stereo partly shown) | < 30 µM
Cn1c(=O)n(C2CCC(=O)NC2=O)c2ccc(C#CCCCCCC(=O)N3CC[C@H]4CC[C@@H](C(=O)N[C@@H](CCC(N)=O)C(=O)NC(c5ccccc5)c5ccccc5)N4C(=O)[C@@H](NC(=O)c4cc5cc(C(=O)P(=O)(O)O)ccc5[nH]4)C3)cc21 (stereo partly shown) | < 30 µM
C/C(=C\C(=O)N[C@H]1CCc2cccc3c2N(C1=O)[C@H](C(=O)N[C@@H](CCC(N)=O)[C@@H](C)OCc1ccc(CCCNC(=O)COCCCc2ccc4c(c2)n(C)c(=O)n4C2CCC(=O)NC2=O)cc1)C3)c1ccc(C(F)(F)P(=O)(OCOC(=O)C(C)(C)C)OCOC(=O)C(C)(C)C)cc1 (stereo partly shown) | > 30 µM
C/C(=C\C(=O)N[C@H]1CCc2cccc3c2N(C1=O)[C@H](C(=O)NC(CCC(N)=O)[C@@H](C)OCc1ccc(CCCOCCCCCCOCCCc2cccc4c2n(C)c(=O)n4C2CCC(=O)NC2=O)cc1)C3)c1ccc(C(F)(F)P(=O)(OCOC(=O)C(C)(C)C)OCOC(=O)C(C)(C)C)cc1 (stereo partly shown) | > 30 µM

The measurements presented in this section are drawn from patent US12077555B2.
